Listed compounds paired with reported Ki
Biological target: 5-hydroxytryptamine receptor 2C (Homo sapiens)
Sequence (P28335 whole entry): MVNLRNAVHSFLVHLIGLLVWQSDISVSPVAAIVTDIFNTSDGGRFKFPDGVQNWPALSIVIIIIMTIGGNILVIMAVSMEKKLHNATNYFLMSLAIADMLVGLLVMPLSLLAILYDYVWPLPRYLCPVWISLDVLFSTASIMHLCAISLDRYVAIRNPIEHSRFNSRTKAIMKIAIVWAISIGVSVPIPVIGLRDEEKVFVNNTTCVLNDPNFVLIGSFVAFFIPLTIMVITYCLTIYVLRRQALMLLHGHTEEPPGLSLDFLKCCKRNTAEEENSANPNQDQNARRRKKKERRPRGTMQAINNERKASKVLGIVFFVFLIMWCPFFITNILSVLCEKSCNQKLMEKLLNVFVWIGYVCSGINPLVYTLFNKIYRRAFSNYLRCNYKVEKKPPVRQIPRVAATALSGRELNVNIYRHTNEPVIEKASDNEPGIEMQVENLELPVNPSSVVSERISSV
Test: Selectivity as the ratio of Ki value towards 5-hydroxytryptamine 2C receptor to that of pA2 value towards 5-hydroxytryptamine 2B receptor
Assay type: functional
QUANTITY MEASURED: Ki (nM)

{"CHEMICAL STRING": "Cn1ccc2cc(NC(=O)Nc3cccnc3)ccc21", "QUANTITY MEASURED": "Ki", "OBSERVED MEASUREMENT": 110}
{"CHEMICAL STRING": "Cc1cc(NC(=O)Nc2ccc3sccc3c2)on1", "QUANTITY MEASURED": "Ki", "OBSERVED MEASUREMENT": 89.1}
{"CHEMICAL STRING": "Cc1cc(NC(=O)Nc2ccc3c(ccn3C)c2)on1", "QUANTITY MEASURED": "Ki", "OBSERVED MEASUREMENT": 347}
